target: Cyclin-dependent kinase 7 (Homo sapiens, UniProt P50613)
Sequence (P50613 whole entry): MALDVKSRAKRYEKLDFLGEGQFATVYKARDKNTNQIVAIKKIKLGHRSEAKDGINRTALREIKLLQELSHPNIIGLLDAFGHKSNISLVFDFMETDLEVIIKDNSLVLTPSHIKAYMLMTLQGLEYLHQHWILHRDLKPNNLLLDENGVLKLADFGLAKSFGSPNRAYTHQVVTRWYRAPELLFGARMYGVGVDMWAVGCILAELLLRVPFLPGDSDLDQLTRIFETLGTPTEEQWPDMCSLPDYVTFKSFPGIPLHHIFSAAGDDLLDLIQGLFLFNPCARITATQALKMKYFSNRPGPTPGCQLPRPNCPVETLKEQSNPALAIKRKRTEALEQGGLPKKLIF
measured_attribute: IC50 (µM)
One number for each entry, in µM.

Q) Give the measured IC50 of `COc1cc2c(cc1OC)-c1n[nH]c(Nc3cccc(F)c3)c1C2` .
A) 56.7

====

experiment: Inhibitory activity against Calmodulin Kinase
pIC50: −log10 of the molar value.
measured_attribute: pIC50

Q) Dear colleague, I am looking for the recorded pIC50 of the following molecule: `COc1cc2c(cc1OC)-c1n[nH]c(Nc3cccc(F)c3)c1C2`
A) < 5.00

====

Consider the following compounds; for each one, report its pIC50.
system: HUVEC; test: Antiproliferative activity against LSGS stimulated HUVEC; format: functional, cell-based; details: Homo sapiens
Give bare numbers, as −log10 of the molar value.

As a guide, the following entries are already answered.
{"columns": ["smiles_str", "recorded_measurement"],
 "data": [
  ["COc1cc2c(cc1OC)-c1n[nH]c(Nc3cccc(Br)c3)c1C2", 5.83],
  ["COc1cc2c(cc1OC)-c1n[nH]c(Nc3cccc(C(F)(F)F)c3)c1C2", 5.60]
]}

--- query ---
Q) So what does the record say about pIC50 for `COc1cc2c(cc1OC)-c1n[nH]c(Nc3cccc(C)c3)c1C2` ?
A) 8.10
